System under test: rSjTGR-Sec (Schistosoma japonicum, UniProt B5THG7)
Sequence (B5THG7 1-596): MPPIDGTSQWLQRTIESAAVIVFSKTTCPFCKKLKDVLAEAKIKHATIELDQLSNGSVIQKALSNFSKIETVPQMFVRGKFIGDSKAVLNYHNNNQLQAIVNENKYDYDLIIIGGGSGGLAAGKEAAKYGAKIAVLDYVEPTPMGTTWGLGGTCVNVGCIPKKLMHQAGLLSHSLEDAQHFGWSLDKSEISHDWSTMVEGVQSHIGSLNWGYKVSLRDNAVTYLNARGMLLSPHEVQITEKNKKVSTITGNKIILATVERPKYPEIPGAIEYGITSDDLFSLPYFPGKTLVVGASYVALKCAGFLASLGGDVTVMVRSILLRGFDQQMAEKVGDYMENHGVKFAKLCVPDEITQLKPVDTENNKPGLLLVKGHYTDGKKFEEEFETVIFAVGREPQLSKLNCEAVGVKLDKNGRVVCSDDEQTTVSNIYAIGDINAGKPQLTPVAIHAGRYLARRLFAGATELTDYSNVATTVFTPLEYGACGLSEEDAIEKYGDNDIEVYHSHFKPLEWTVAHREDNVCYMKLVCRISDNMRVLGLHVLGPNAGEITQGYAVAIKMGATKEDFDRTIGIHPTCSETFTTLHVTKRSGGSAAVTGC
Measurement notes: Inhibition of TrxR activity of rSjTGR-Sec (DTNB reduction, absorbance 412 nm)
Assay type: biochemical
Study conditions: DTNB, pH 7.0, 25 °C, triplicate, >50 μM = flat response within range tested, read-out: IC50 of rSjTGR-Sec
pIC50: −log10 of the molar value.
Please respond with reported pIC50 for every item in the list.

Reported pIC50 for [O-][n+]1onc(-c2ccncc2)c1CO : what is it?
7.44

Reported pIC50 for [O-][n+]1onc(-c2ccncc2)c1CN1CCN(c2cccc(C(F)(F)F)c2)CC1 : what is it?
< 4.30

Reported pIC50 for CC(=O)OCc1c(-c2ccncc2)no[n+]1[O-] : what is it?
< 4.30

Reported pIC50 for [O-][n+]1onc(-c2cccnc2)c1CN1CCN(c2ccc(F)cc2)CC1 : what is it?
< 4.30

Reported pIC50 for O=C(OCc1c(-c2cccnc2)no[n+]1[O-])c1ccc(F)cc1 : what is it?
< 4.30

Reported pIC50 for CC(=O)OCc1c(-c2ccc(C(F)(F)F)nc2)no[n+]1[O-] : what is it?
< 4.30

Reported pIC50 for CC(C)(C)C(=O)OCc1c(-c2ccncc2)no[n+]1[O-] : what is it?
< 4.30

Reported pIC50 for CCCC(=O)OCc1c(-c2ccncc2)no[n+]1[O-] : what is it?
< 4.30

Reported pIC50 for [O-][n+]1onc(-c2ccncc2)c1CN1CCN(c2ccc(F)cc2)CC1 : what is it?
< 4.30

Reported pIC50 for O=C(OCc1c(-c2ccc(C(F)(F)F)nc2)no[n+]1[O-])c1ccccc1 : what is it?
< 4.30

Reported pIC50 for [O-][n+]1onc(-c2cccnc2)c1CNc1ccc(OC(F)(F)F)cc1 : what is it?
< 4.30

Reported pIC50 for O=C(CCl)OCc1c(-c2ccncc2)no[n+]1[O-] : what is it?
< 4.30

Reported pIC50 for [O-][n+]1onc(-c2cccnc2)c1CO : what is it?
6.41

Reported pIC50 for O=C(OCc1c(-c2ccncc2)no[n+]1[O-])c1ccc(F)cc1 : what is it?
< 4.30

Reported pIC50 for CCC(=O)OCc1c(-c2cccnc2)no[n+]1[O-] : what is it?
< 4.30

Reported pIC50 for O=C(OCc1c(-c2ccncc2)no[n+]1[O-])c1ccccc1 : what is it?
5.49

Reported pIC50 for COc1ccc(-c2no[n+]([O-])c2CNc2ccccc2)cn1 : what is it?
< 4.30

Reported pIC50 for CC(=O)OCc1c(-c2cccnc2)no[n+]1[O-] : what is it?
< 4.30

Reported pIC50 for O=C(OCc1c(-c2ccncc2)no[n+]1[O-])c1c(F)c(F)c(F)c(F)c1F : what is it?
< 4.30

Reported pIC50 for [O-][n+]1onc(-c2ccncc2)c1CNc1ccc(OC(F)(F)F)cc1 : what is it?
5.82

Reported pIC50 for CC(C)(C)C(=O)OCc1c(-c2cccnc2)no[n+]1[O-] : what is it?
< 4.30
